- study_system: T1, cynomolgus monkey PVRIG on FlpinCHO-cyno PVRIG cells (cynomolgus monkey, UniProt A0A2K5WVV8 41-322)
- T1 construct: whole, on cells
- T1 sequence: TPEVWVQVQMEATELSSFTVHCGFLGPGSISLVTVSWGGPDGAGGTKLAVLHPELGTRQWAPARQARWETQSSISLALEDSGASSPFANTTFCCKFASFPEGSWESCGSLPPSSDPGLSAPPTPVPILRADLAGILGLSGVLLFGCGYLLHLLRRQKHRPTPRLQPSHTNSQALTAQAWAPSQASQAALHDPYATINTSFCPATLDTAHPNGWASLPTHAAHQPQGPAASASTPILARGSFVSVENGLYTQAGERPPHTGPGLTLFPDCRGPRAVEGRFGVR
- assay_details: FACS, FlpinCHO-cyno PVRIG cells; AUC of MFI curve relative to COM701-hIgG1
Classify: Y when % AUC to COM701-hIgG1 is strictly less than 40%; N when % AUC to COM701-hIgG1 is not.

binder	class_label
PVRIG-A43 (Fc fusion, Alpaca VHH joined to human IgG1 Fc (VHH-hinge-CH2-CH3); not shown: human IgG1 hinge-CH2-CH3) QVQLVESGGGLVQSGGSLRLSCAASGRTRSMYVMGWFRQAPGKEREFVGRIKWSGDTTYTSYADFVKGRFTLYGNQARNTVYLQMNSLKVEDTAVYYCAGRVVPLPSRQRDRYDYWGQGTQVTVSS	Y
PVRIG-A60 (Fc fusion, Alpaca VHH joined to human IgG1 Fc (VHH-hinge-CH2-CH3); not shown: human IgG1 hinge-CH2-CH3) QVQLVESGGGLVQSGGSLRLSCAASGRTRSMYVMGWFRQAPGKEREFVGRIKWSGDTTYTSYADFVKGRFTLYGNQARNTVYLQMNSLKPEDAAVYYCNLRRLDGVNYWGKGTLVTVSS	N
PVRIG-A15 (Fc fusion, Alpaca VHH joined to human IgG1 Fc (VHH-hinge-CH2-CH3); not shown: human IgG1 hinge-CH2-CH3) QVQLVESGGGLVQAGGSLRLSCVASGRTFSANTMAWFRQAPGKEREFVAYTRWTDDNTDYASYADFVKGRFTAFRDNTRNTMYLQMNRLRPEDTAVYYCAAATTRGTYYSAGDYNSWGQGTQVTVSS	Y
PVRIG-A118 (Fc fusion, Alpaca VHH joined to human IgG1 Fc (VHH-hinge-CH2-CH3); not shown: human IgG1 hinge-CH2-CH3) QVQLVESGGGLVQAGGSLRLSCAASETYFDLYVMGWYRQAPGKDRELVATITYTGSIKIVDSVKDRFTISRGDAKNTVSLQMSSLKPEDTAVYFCNADPSGLGRKVYWGQGTQVTVSS	N
PVRIG-A113 (Fc fusion, Alpaca VHH joined to human IgG1 Fc (VHH-hinge-CH2-CH3); not shown: human IgG1 hinge-CH2-CH3) QLQLVESGGGLVQSGGSLRLSCAASGRTRSMYVMGWFRQAPGKEREFVGRIKWSGDTTYTSYADFVKGRFTLYGNQARNTVYLQMNSLKPEDTAVYYCAALPSDYDYRAASYGVDYWGKGTLVTVSS	Y
PVRIG-A50 (Fc fusion, Alpaca VHH joined to human IgG1 Fc (VHH-hinge-CH2-CH3); not shown: human IgG1 hinge-CH2-CH3) EVQLVESGGGLVQPGGSLRLSCAASGFTFSYYDMSWVRQAPGKGLEWVSTINSNGGRTSYVDSVKGRFTISRDNTKNTLYLQMNSLKPEDTAVYYCVEGDPHNFGLENLSLRDFGSWGQGTQVTVSS	N
PVRIG-A11 (Fc fusion, Alpaca VHH joined to human IgG1 Fc (VHH-hinge-CH2-CH3); not shown: human IgG1 hinge-CH2-CH3) QLQLVESGGGLVQPGGSLRLSCAASGFTDDYYAIGWFRQAPGKEREGVSCISGSGGSTNYEDSVKGRFAISRDNAKNMVYLQMNDLKPEDTAVYYCAADPFWSAPCTGHNDRYFDVWGQGTLVTVSS	N
